experiment: soluble fraction after stress (log2 fold change); higher = more stays soluble; pooled small domains, quantitative proteomics; conditions: stress: pH 4
Classify by measured soluble fraction (log2): label 1 if it is equal to or exceeds -0.7, label 0 if it is smaller.

Example entries and their recorded answers appear below.
HMSKKMLASIFDTISGIGKKRLKKIWDNYTSLNELKDDSLENIYAKTQIPINLITKIKEKLE
label 1
HMDADTVGQIRVVKQILDDGRLIVVDASGNPVLVRRSSALSLTAISQGDRIIVDPSVRLAIELLPNE
label 1

Lookup: State whether the measured soluble fraction (log2) reaches -0.7, counting equality as reaching it, for HMTQHDIVPLMLKMVDVLTQFVELDIPFLQQERQTRLAALNAMMGRADVSLAEKYRRIMEAYQVETEYG
Found: label 1

Lookup: State whether the measured soluble fraction (log2) reaches -0.7, counting equality as reaching it, for HMNLKDINLNVRHYKIIDFVREHGYASIETLTRQFGVSAQTVRRDIIYLDNQAVLKRHHGGVGTLPG
Found: label 0

Lookup: State whether the measured soluble fraction (log2) reaches -0.7, counting equality as reaching it, for HMQFLKPQDVLFLLKLVVLKGPASIFPAVPESLGLSKAEVHNSAKRVRGARLLPHDSWNPLRKNLLEFL
Found: label 1

Lookup: State whether the measured soluble fraction (log2) reaches -0.7, counting equality as reaching it, for HMQDTQAEEGETLLDALRRIHPESSTGTLRRMLTQGRVQLDGDSVHAAKTVLSAGQRVEVVAR
Found: label 1

Lookup: State whether the measured soluble fraction (log2) reaches -0.7, counting equality as reaching it, for HMAGDDEIEKIAQDILAAWPDKVAAYQAGNKGLMGLFMGELMKKSQGKANPKVASGIIQKLLD
Found: label 1
